Molecular target: canine IRAK4 (Canis lupus familiaris)
Assay: Canine IRAK4 kinase assay (TR-FRET)
Assay type: biochemical
Conditions: IC50 in the IRAK4 canine kinase assay, values from two experiments, 1 mM ATP
Items are presented alongside their recorded IC50.

{"columns": ["query_smiles", "IC50 / nM"],
 "data": [
  ["Cc1nc(C(=O)Nc2cc3cn(CCC(C)(C)O)nc3cc2C(C)(C)O)ccc1F", 6.75],
  ["CC(C)(O)CCn1cc2cc(NC(=O)c3cccc(C(F)F)n3)c(C(C)(C)O)cc2n1", 2.68]
]}

###

Biological target: canine IRAK4 (Canis lupus familiaris, UniProt A0A8I3S726)
Sequence (A0A8I3S726 1-460): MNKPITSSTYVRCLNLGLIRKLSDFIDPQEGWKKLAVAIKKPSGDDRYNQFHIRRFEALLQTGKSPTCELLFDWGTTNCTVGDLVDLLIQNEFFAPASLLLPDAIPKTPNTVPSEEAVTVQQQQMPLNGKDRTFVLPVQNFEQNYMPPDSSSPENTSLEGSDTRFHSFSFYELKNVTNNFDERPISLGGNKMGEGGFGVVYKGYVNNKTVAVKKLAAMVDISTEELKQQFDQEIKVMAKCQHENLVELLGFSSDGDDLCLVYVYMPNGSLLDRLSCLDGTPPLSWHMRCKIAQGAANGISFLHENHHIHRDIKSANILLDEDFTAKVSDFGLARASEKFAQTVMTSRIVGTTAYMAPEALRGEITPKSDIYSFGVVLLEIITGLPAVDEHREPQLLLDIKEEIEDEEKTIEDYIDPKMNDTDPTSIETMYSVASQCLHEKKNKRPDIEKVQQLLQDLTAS
Assay: Canine IRAK4 kinase assay (TR-FRET)
Format: biochemical
Conditions: recombinant canine IRAK4 enzyme; read-out: IC50 for the inhibition of canine IRAK4
Items are presented alongside their recorded IC50.

{"columns": ["compound", "target_or_system", "IC50 (nM)"],
 "data": [
  ["Cc1nc(C(=O)Nc2cc3cn(CCC(C)(C)O)nc3cc2C(C)(C)O)ccc1F [Example 19]", "canine IRAK4 (Canis lupus familiaris, UniProt A0A8I3S726)", 7.6],
  ["CC(C)(O)CCn1cc2cc(NC(=O)c3cccc(C(F)F)n3)c(C(C)(C)O)cc2n1 [Example 13]", "canine IRAK4 (Canis lupus familiaris, UniProt A0A8I3S726)", 2.2]
]}
